# INHIBITION listing for each entry below
System: Plasmodium falciparum
Measurement notes: Screen against P. falciparum Asexual Blood Stage (ABS), at 5uM
Format: functional, Dd2
Reported conditions: tested at 5 uM
Out of some 65,000 compounds screened, about 2,100 (3.2%) showed an effect of 50% or more. The median lay at about -52%. Only a selection was taken, and strong results are over-represented in it overall.

Below: 10 molecules and their reported INHIBITION.
Q: Form field - read-out: INHIBITION; system: Plasmodium falciparum; submitted item: CCCNS(=O)(=O)Cc1ccc(Br)cc1
Ans: -14.1%

Q: Report INHIBITION for Cc1nc(CN(C)c2nccc(N(C)C)n2)cs1 tested on Plasmodium falciparum.
Ans: 27.2%

Q: For the record COc1ccc(-c2cccc(-c3ccn(CCCN(C)C)n3)c2)nn1 , what value of INHIBITION is listed for Plasmodium falciparum?
Ans: -18.6%

Q: Short answer please: INHIBITION, Plasmodium falciparum, entry Cc1ccc(S(=O)(=O)N2CCC(O)(CN(C)C)C2)cc1 (configuration not stated)
Ans: 52%

Q: Recorded INHIBITION for CCCc1cncnc1N1CCC2(CCC(=O)N(C3CCCC3)C2)CC1 with Plasmodium falciparum, please?
Ans: 29.3%

Q: Given the entry Cc1cc(N2CCC(Cc3ccccc3)CC2)nc(-c2ccncc2)n1 , what INHIBITION was observed with Plasmodium falciparum?
Ans: -64.9%

Q: State its INHIBITION on Plasmodium falciparum: O=C(c1cccnc1O)N1CCN(Cc2ccccc2F)CC1
Ans: -14.3%

Q: Notebook: pull reported INHIBITION for Plasmodium falciparum, entry COc1ccnc(N(C)Cc2csc(C)n2)n1
Ans: -49.6%

Q: Observed INHIBITION on Plasmodium falciparum for O=C(Cc1ccsc1)N1CCCC(c2n[nH]c3ncccc23)C1 (configuration not stated) , please.
Ans: -37.1%

Q: Provide value of INHIBITION for this record tested with Plasmodium falciparum: Cc1csc2c(N3CCC(NCCCc4cnn(C)c4)CC3)ncnc12
Ans: -10.6%

Continuing:
Q: I'm curious: which INHIBITION was measured for CN(C)CC1(O)CCN(S(=O)(=O)c2cccc(F)c2)C1 (configuration not stated) tested on Plasmodium falciparum?
Ans: 66.7%

Q: Which measured INHIBITION belongs to Cc1cccc(CN2CCc3c(COCC(=O)N(C)C)nn(C)c3C2)n1 , tested on Plasmodium falciparum?
Ans: -107%

Q: Any idea what INHIBITION came out for CCn1nccc1CNC(=O)Cn1cc2c(n1)c(C)nn2C(C)C on Plasmodium falciparum?
Ans: -127%

Q: Please provide the recorded INHIBITION for CN(C)CC1(O)CCN(S(=O)(=O)c2ccc(Cl)cc2)C1 (configuration not stated) , tested on Plasmodium falciparum.
Ans: 42.9%

Q: # returns recorded INHIBITION (system: Plasmodium falciparum) for c1cc(-c2cnccn2)cc(-c2ccn(CCN3CCCC3)n2)c1
Ans: 69.1%

Q: Give INHIBITION (Plasmodium falciparum) of the following molecule: O=C(c1cccn1-c1ccc2c(c1)OCCO2)N1CCCC1
Ans: 9.62%

Q: Give Plasmodium falciparum INHIBITION for Cn1cc(C(=O)NCc2cn3c(n2)CN(C2CCOCC2)CC3)cn1
Ans: -26.8%
